# credit: ChEMBL document CHEMBL1136968

Test: Toxicity against mouse 3T3 cells by resazurin assay
Format: cell-based
Settings: NIH3T3 cells
Reported EC50 values follow for various compounds

Example entries begin here.
>  <Smiles Data>
c1ccc(-c2ccc(Cn3cncc3CNc3ccc(-c4nc5ccccc5s4)c(-c4ccccc4)c3)cc2)cc1

>  <Property Measured>
EC50

>  <Assay Value>
> 1 µM

$$$$
>  <Smiles Data>
COC(=O)c1ccc(NCc2cncn2Cc2cccc(C)c2)cc1-c1ccccc1

>  <Property Measured>
EC50

>  <Assay Value>
> 10 µM

$$$$
>  <Smiles Data>
COC(=O)c1ccc(NCc2cncn2Cc2ccc(-c3ccccc3)cc2)cc1

>  <Property Measured>
EC50

>  <Assay Value>
> 10 µM

$$$$

Recorded EC50 (compound "COC(=O)c1ccc(NCc2cncn2Cc2ccc(F)cc2F)cc1-c1ccccc1" ): > 1 µM

Recorded EC50 (compound "c1ccc(-c2ccc(Cn3cncc3CNc3ccc(-c4ccccc4)c(-c4ccccc4)c3)cc2)cc1" ): > 10 µM

Recorded EC50 (compound "COC(=O)c1ccc(NCc2cncn2Cc2ccccc2N)cc1-c1ccccc1" ): 25 µM

Recorded EC50 (compound "COC(=O)c1ccc(NCc2cncn2Cc2cccc(F)c2)cc1-c1ccccc1" ): > 1 µM
